Biological target: T1, RBFOX1 RRM RbFoxmut (Fox-RRM*) (Homo sapiens, UniProt Q9NWB1 109-208, R118D;E147R;N151S;E152T)
T1 sequence: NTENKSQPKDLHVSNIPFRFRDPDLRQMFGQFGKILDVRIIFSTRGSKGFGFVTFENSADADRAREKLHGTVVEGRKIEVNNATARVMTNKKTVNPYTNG
Experiment: EMSA; HiTS-Eq, 1 nM pool, 10 min; buffer printed only for the single-RNA assays: 10 mM Tris pH 7.5, 150 mM NaCl, 3.4 mM EDTA, 0.001% NP-40, 30 C
Settings: tags: His6 N-terminal (pET28a); label: 5' 32P
In all, about 16,000 sequences were measured (“ka relative to ugcaugu”: median about 0.096, highest 2% from about 0.35 on). This is one part of a sample in which the highest values are shown more often than they occur.
PROPERTY_NAME: binding signal

Example results:
BINDER	binding signal
ACUGCGG (DNA:RNA) RNA: GGGAGACCGGAAUUCAGAUUGUCCACUGCGGUUAAAUCCCGUCGUAGCCACCA DNA 1: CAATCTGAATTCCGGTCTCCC DNA 2: TGGTGGCTACGACGGGATT	0.0963 KA relative to UGCAUGU
GAUAAGU (DNA:RNA) RNA: GGGAGACCGGAAUUCAGAUUGUCCGAUAAGUUUAAAUCCCGUCGUAGCCACCA DNA 1: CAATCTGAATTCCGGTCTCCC DNA 2: TGGTGGCTACGACGGGATT	0.0905 KA relative to UGCAUGU
UUGUGCC (DNA:RNA) RNA: GGGAGACCGGAAUUCAGAUUGUCCUUGUGCCUUAAAUCCCGUCGUAGCCACCA DNA 1: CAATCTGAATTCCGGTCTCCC DNA 2: TGGTGGCTACGACGGGATT	0.46 KA relative to UGCAUGU
UGCACAU (DNA:RNA) RNA: GGGAGACCGGAAUUCAGAUUGUCCUGCACAUUUAAAUCCCGUCGUAGCCACCA DNA 1: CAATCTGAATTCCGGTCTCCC DNA 2: TGGTGGCTACGACGGGATT	0.0893 KA relative to UGCAUGU
ACUCCUU (DNA:RNA) RNA: GGGAGACCGGAAUUCAGAUUGUCCACUCCUUUUAAAUCCCGUCGUAGCCACCA DNA 1: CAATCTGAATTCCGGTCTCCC DNA 2: TGGTGGCTACGACGGGATT	0.0436 KA relative to UGCAUGU

*Q* For the binder shown here, CUAAAUG (DNA:RNA) RNA: GGGAGACCGGAAUUCAGAUUGUCCCUAAAUGUUAAAUCCCGUCGUAGCCACCA DNA 1: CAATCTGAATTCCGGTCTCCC DNA 2: TGGTGGCTACGACGGGATT , give the reported binding signal.
*A* 0.0852 KA relative to UGCAUGU

*Q* For the binder shown here, UGCUGGC (DNA:RNA) RNA: GGGAGACCGGAAUUCAGAUUGUCCUGCUGGCUUAAAUCCCGUCGUAGCCACCA DNA 1: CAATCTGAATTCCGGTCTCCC DNA 2: TGGTGGCTACGACGGGATT , give the reported binding signal.
*A* 0.119 KA relative to UGCAUGU

*Q* For the binder shown here, UGAAAUG (DNA:RNA) RNA: GGGAGACCGGAAUUCAGAUUGUCCUGAAAUGUUAAAUCCCGUCGUAGCCACCA DNA 1: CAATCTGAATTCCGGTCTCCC DNA 2: TGGTGGCTACGACGGGATT , give the reported binding signal.
*A* 0.158 KA relative to UGCAUGU

*Q* For the binder shown here, CAGUGCC (DNA:RNA) RNA: GGGAGACCGGAAUUCAGAUUGUCCCAGUGCCUUAAAUCCCGUCGUAGCCACCA DNA 1: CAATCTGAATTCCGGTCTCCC DNA 2: TGGTGGCTACGACGGGATT , give the reported binding signal.
*A* 0.402 KA relative to UGCAUGU

*Q* For the binder shown here, ACUUGCG (DNA:RNA) RNA: GGGAGACCGGAAUUCAGAUUGUCCACUUGCGUUAAAUCCCGUCGUAGCCACCA DNA 1: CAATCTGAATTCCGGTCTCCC DNA 2: TGGTGGCTACGACGGGATT , give the reported binding signal.
*A* 0.156 KA relative to UGCAUGU

*Q* For the binder shown here, GAGAAUG (DNA:RNA) RNA: GGGAGACCGGAAUUCAGAUUGUCCGAGAAUGUUAAAUCCCGUCGUAGCCACCA DNA 1: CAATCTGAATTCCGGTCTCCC DNA 2: TGGTGGCTACGACGGGATT , give the reported binding signal.
*A* 1.5 KA relative to UGCAUGU
